Here, each record is paired with measured recombinant barcode read abundance (log10) data.
# Measurement Description: recombinant barcode read abundance after kanamycin selection (control-corrected) (log10(CPM+1)); higher = more efficient recombination; sequences stand for … in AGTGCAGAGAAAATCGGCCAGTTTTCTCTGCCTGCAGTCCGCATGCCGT…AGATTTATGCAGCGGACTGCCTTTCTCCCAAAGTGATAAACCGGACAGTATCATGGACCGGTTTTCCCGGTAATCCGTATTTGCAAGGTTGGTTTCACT; site = the 11-nt target
Reply with just the number.

# example entries with known answers
{"Sequence Input": "CCTGCGGCTTGGGTTCTAACCTGTTGCCT (site CCTGCGGCTAG)", "Readout Number": 0.15}
{"Sequence Input": "CATAGATCTTGGGTTCTAACCTGTTGCTT (site CAGAGATCTAA)", "Readout Number": 0.0253}
{"Sequence Input": "ACTACCTCTTGGGTTCTAACCTGTTGCCT (site AATACCTCTAG)", "Readout Number": 0.0169}
{"Sequence Input": "GCGCACACTTGGGTTCTAACCTGTTGCCT (site ACGCACACTAG)", "Readout Number": 0.851}

Now look at this entry.
**Query** Name the reported recombinant barcode read abundance (log10) value associated with the sequence GGACCTCCTTGGGTTCTAACCTGTTGCTT (site GGACCTCCTAT)
**Result** 1.32

* * *

# Measurement Description: recombinant UMI read abundance after kanamycin selection (control-corrected) (log10(CPM+1)); higher = more efficient recombination; extreme values may be limits of the assay; sequences stand for … in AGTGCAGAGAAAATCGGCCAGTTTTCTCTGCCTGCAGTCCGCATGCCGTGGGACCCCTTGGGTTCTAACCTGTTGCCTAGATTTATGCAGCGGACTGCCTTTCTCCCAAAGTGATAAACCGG…AGGTTGGTTTCACT; site = the 11-nt donor
Output true (1) for recombinant UMI read abundance (log10) not less than 0.01; output false (0) otherwise.

{"Sequence Input": "GACAAACCATGGACCGGTTTTCCCGGTAATCCGTATTTGGT (site GGCAAACCTAC)", "Assigned Class": "false (0)"}
{"Sequence Input": "GAGCTCGCATGGACCGGTTTTCCCGGTAATCCGTATTTGAT (site GAGCTCTCTAT)", "Assigned Class": "true (1)"}
{"Sequence Input": "TGGCCGGCATGGACCGGTTTTCCCGGTAATCCGTATTTGGT (site TGGCCGGCTAC)", "Assigned Class": "true (1)"}
{"Sequence Input": "CAAGTCCCATGGACCGGTTTTCCCGGTAATCCGTATTTGGG (site CAAGTCCCTCC)", "Assigned Class": "false (0)"}

**Query** Can AATTATGCATGGACCGGTTTTCCCGGTAATCCGTATTTGGA (site CATTATGCTTC) be said to have recombinant UMI read abundance (log10) at or above 0.01?
**Result** true (1)

**Query** Hello, I need to know if TGGGTAGCATGGACCGGTTTTCCCGGTAATCCGTATTTGGG (site TGGGTAGCTCC) has measured recombinant UMI read abundance (log10) not below 0.01. Thanks!
**Result** false (0)

**Query** Entry CAACCGCCATGGACCGGTTTTCCCGGTAATCCGTATTTGTG (site CAAACGCCTCA) : is its recombinant UMI read abundance (log10) no less than 0.01?
**Result** false (0)

**Query** recombinant UMI read abundance (log10) >= 0.01 for GGAGTGGCATGGACCGGTTTTCCCGGTAATCCGTATTTGAT (site GGAGTGGCTAC) ?
**Result** true (1)

**Query** Evaluate ACAAGAACATGGACCGGTTTTCCCGGTAATCCGTATTTGAG (site ACTAGAACTCT) : recombinant UMI read abundance (log10) at minimum 0.01?
**Result** true (1)
